assayed.system: Integrin beta-2 (Homo sapiens) + Integrin alpha-M (Homo sapiens) (UniProt P05107+P11215)
Sequence (P05107 whole entry, looked up, other chains not shown): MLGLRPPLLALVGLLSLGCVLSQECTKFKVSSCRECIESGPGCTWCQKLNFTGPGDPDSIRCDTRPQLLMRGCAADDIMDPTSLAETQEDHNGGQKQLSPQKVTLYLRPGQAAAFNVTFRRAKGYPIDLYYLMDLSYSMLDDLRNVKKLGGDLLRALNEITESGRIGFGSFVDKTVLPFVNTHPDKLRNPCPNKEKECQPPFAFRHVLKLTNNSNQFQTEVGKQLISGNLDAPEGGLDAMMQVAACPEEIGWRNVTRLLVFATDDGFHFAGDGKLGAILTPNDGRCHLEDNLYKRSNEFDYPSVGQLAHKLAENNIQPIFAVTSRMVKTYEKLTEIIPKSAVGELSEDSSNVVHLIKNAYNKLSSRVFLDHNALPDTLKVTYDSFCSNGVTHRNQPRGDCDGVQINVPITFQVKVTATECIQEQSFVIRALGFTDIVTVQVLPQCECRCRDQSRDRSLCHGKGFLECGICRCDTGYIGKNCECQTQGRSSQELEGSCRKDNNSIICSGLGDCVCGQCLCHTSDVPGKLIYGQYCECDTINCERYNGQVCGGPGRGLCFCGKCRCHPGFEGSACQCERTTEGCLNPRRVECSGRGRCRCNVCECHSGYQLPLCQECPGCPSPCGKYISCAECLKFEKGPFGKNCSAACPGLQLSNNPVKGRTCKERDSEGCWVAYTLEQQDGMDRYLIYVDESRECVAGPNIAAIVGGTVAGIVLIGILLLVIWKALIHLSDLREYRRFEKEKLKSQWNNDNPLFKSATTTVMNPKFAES
test.protocol: inhibitors of CD11b/CD18 adhesion to fibrinogen, primary screen, K562 cells, luminescence (AID 1497)
run.parameters: ATPlite luminescence, at 10 µM, active compounds read high, Mn2+ added to activate the integrin
Hit rate of the full screen: of about 93,000 compounds, about 500 (0.54%) were called active. Shown is part of a subset that was picked to be rich in actives.
readout.name: inhibition (%)
Note: unit % is implicit; provide only the numeric part.

CCCC/C(C)=N/NC(=O)NC1CCCCC1: 5.3
Oc1c(Br)cccc1/C=N/Nc1c(F)c(F)c(F)c(F)c1F: 99.8
CC(C)[C@H](NC(=O)c1ccc(F)cc1)C(=O)OCC(=O)NC(=O)c1cccn1C: -23.1
CCCc1ccc(-c2c(C)sc(NC(=O)c3ccnn3C)c2C#N)cc1: 62.4
CC(C)CNC(=O)COC(=O)c1ccccc1OCC(=O)Nc1ccc(Br)cc1: 7.6

Exercise: Query (molecule): O=C(CC(O)(C(F)(F)F)C(F)(F)F)Nc1ccc(Cl)c(Cl)c1 ; field requested: inhibition
Key: 89.5

Exercise: Query (molecule): Cc1c(NS(=O)(=O)c2ccc(NC3CCCC3)c([N+](=O)[O-])c2)c(=O)n(-c2ccccc2)n1C ; field requested: inhibition
Key: 1

Exercise: Query (molecule): CCOC(=O)c1cnc2ccc(F)cc2c1Nc1ccc2c(c1)OCCO2 ; field requested: inhibition
Key: 2.6

Exercise: Query (molecule): Cc1ccc(-n2c(C)cc(C(=O)CSc3nnc4ccccn34)c2C)cc1 ; field requested: inhibition
Key: 23.4

Exercise: Query (molecule): COCCCNC(=O)Cn1cc(/C=C(\C#N)C(=O)N2CCN(c3ccccc3)CC2)c2ccccc21 ; field requested: inhibition
Key: 21.8

Exercise: Query (molecule): COc1ccccc1CN(C)C(=O)C1(c2ccc(Cl)cc2)CC1 ; field requested: inhibition
Key: 11.8

Exercise: Query (molecule): CC(=C/c1ccccc1)/C=N/NC(=O)c1cc(C)oc1C ; field requested: inhibition
Key: 4.2

Exercise: Query (molecule): O=C(COC(=O)c1ccc(Cl)nc1)NCc1ccc2c(c1)OCO2 ; field requested: inhibition
Key: 4.3

Exercise: Query (molecule): CCCn1c(N)c(C(=O)CSc2nnc(-c3cccnc3)n2-c2ccc(C)cc2C)c(=O)[nH]c1=O ; field requested: inhibition
Key: -8.1

Exercise: Query (molecule): CCc1c(C)sc(NC(=O)/C=C/c2ccc3c(c2)OCO3)c1C(=O)OC ; field requested: inhibition
Key: -6.4

Exercise: Query (molecule): N#C/C(=C/c1cccc([N+](=O)[O-])c1)c1nnc2n1CCCCC2 ; field requested: inhibition
Key: 2.5

Exercise: Query (molecule): Cc1cc2oc(=O)cc(CN3CCN(S(=O)(=O)c4cccs4)CC3)c2cc1C(C)C ; field requested: inhibition
Key: 22.2

----------
assayed.system: Integrin beta-2 (Homo sapiens) + Integrin alpha-M (Homo sapiens) (UniProt P05107+P11215)
test.protocol: inhibitors of CD11b/CD18 adhesion to fibrinogen, primary screen, K562 cells, luminescence (AID 1497)
run.parameters: ATPlite luminescence, at 10 µM, active compounds read high, Mn2+ added to activate the integrin
Hit rate of the full screen: of about 93,000 compounds, about 500 (0.54%) were called active. Many of the other results were omitted from the sample, so actives are more common in it than they were.
readout.name: inhibition (%)
Note: unit % is implicit; provide only the numeric part.

COc1cccc(-c2nc3cc(C)ccc3o2)c1: 21
COc1ccc(Cl)cc1NC(=O)[C@@H]1CCCN1C(=O)c1cccs1: -14.3
Cc1c(Cl)cccc1NC(=O)CC1SC(=NCC2CCCO2)NC1=O (centres undefined): 12.8
Cc1cccc(CC(=O)N2CCN=C2SCc2ccc([N+](=O)[O-])cc2)c1: -1.1
O=C(Cc1ccc(-c2ccccc2)cc1)NC(c1ccccc1)c1ccccc1: -18.2

Exercise: // map CCN(/N=C/c1ccc(N(C)C)cc1)c1nc2ccccc2[nH]1 to recorded inhibition (system: Integrin beta-2 (Homo sapiens) + Integrin alpha-M (Homo sapiens) (UniProt P05107+P11215))
Key: 15

Exercise: // map CC1(c2cccc([N+](=O)[O-])c2)CC(C)(C)N(C(=O)c2ccccc2)c2ccccc21 (centres undefined) to recorded inhibition (system: Integrin beta-2 (Homo sapiens) + Integrin alpha-M (Homo sapiens) (UniProt P05107+P11215))
Key: 12.3

Exercise: // map CCCCCC(=O)Nc1ccc2oc(-c3ccncc3)nc2c1 to recorded inhibition (system: Integrin beta-2 (Homo sapiens) + Integrin alpha-M (Homo sapiens) (UniProt P05107+P11215))
Key: -1.9

Exercise: // map COc1ccc(CCNC(=O)CCn2c(=O)oc3ccccc32)cc1OC to recorded inhibition (system: Integrin beta-2 (Homo sapiens) + Integrin alpha-M (Homo sapiens) (UniProt P05107+P11215))
Key: -58.2
